target: T1, hPRLR.mFc (soluble dimeric human PRLR) (Homo sapiens, UniProt P16471); experiment: Surface plasmon resonance (Biacore T200), mAb-capture format; format: binding; details: 37° C., antibody-capture format, analyte hPRLR.mFc
T1 construct: dimeric (hPRLR.mFc)
T1 sequence (P16471 with tags, fused parts or gaps): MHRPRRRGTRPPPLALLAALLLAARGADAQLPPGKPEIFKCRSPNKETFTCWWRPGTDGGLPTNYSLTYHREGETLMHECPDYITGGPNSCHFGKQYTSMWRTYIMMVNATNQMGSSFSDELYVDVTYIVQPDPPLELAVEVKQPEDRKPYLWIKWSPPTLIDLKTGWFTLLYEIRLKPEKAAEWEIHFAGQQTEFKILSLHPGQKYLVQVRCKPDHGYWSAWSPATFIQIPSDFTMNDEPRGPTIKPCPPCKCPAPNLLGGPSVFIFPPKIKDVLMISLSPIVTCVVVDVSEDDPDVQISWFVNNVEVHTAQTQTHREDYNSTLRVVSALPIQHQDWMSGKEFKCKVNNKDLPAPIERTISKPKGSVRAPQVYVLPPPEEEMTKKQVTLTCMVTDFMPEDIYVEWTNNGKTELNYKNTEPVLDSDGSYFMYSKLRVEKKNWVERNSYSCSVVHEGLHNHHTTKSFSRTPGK
quantity: T½ (min)
// note: answer is a bare numeric in min

Report measured T½; entry is H1H6790P: anti-PRLR antibody, human IgG1 Fc; HCVR/LCVR SEQ ID NOs 114/122 (antibody, V domains shown, human IgG1 Fc) VH: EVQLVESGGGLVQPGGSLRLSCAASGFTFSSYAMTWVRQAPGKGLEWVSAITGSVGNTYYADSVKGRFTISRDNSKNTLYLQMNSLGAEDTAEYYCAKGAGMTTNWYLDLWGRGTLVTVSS VL: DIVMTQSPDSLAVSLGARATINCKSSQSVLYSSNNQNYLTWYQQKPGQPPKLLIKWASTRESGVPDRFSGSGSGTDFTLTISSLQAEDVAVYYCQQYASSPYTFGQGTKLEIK 58
